Target: FRMPD2_2, Q68DX3
Sequence (Q68DX3 944-1038): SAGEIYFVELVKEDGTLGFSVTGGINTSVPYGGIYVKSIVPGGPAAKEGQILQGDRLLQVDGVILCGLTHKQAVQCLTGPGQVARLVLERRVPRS
Assay: holdup assay
Set-up: key: below the threshold = too weak to quantify, mostly under pKd 3.1 to 4
Conditions: plain residues with an end cap or a label only (N-terminal biotin on a linker: ttds)
MEASUREMENT_NAME: pKd

DPRNTQTSQI [ABRAXAS2, Q15018] = below the threshold
RTRQRNETQV [HPV51-E6, P26554] = 3.41
SRRPRTETQV [HPV31-E6, P17386] = below the threshold
LCALPKVTTV [AGMAT, Q9BSE5] = 3.72
